Data origin: the supplement of paper PMC9112550

- Tested on: Escherichia coli TOP10
- Procedure summary: shrunken log2 fold change of peptide-encoding DNA abundance (4.5 h post-induction vs induction); higher = less antimicrobial activity (less host growth inhibition)
- Reported conditions: time post-induction: 4.5 h; library: site-saturation at positions 5, 18, 19, 20
Endpoint label: shrunken log2 fold change
Lab note: jot the number down without any unit.

The following sequences have reported results that may help.
{"columns": ["Seq string", "shrunken log2 fold change"],
 "data": [
  ["RRIRVRPPRLPRPRPRPRAAPRP", 0.425],
  ["RRIRHRPPRLPRPRPRPIDTPRP", -0.291],
  ["RRIRWRPPRLPRPRPRPQHVPRP", -0.274],
  ["RRIRMRPPRLPRPRPRPWPSPRP", 0.034],
  ["RRIRVRPPRLPRPRPRPWTAPRP", -0.12]
]}

Please look up its shrunken log2 fold change: "RRIRTRPPRLPRPRPRPRDKPRP"
-0.18

So what's the measured shrunken log2 fold change for this one? "RRIRMRPPRLPRPRPRPPNMPRP"
0.268

Consider the sequence "RRIRDRPPRLPRPRPRPSHEPRP" and give its measured shrunken log2 fold change.
-0.0403

====

- Tested on: Escherichia coli TOP10
- Procedure summary: shrunken log2 fold change of peptide-encoding DNA abundance (4.5 h post-induction vs induction); higher = less antimicrobial activity (less host growth inhibition)
- Reported conditions: time post-induction: 4.5 h; library: site-saturation at positions 5, 18, 19, 20
Endpoint label: shrunken log2 fold change
Form rule: numeric answer, no unit written next to it.

{"columns": ["Seq string", "System", "shrunken log2 fold change"],
 "data": [
  ["RRIRPRPPRLPRPRPRPWQAPRP", "Escherichia coli TOP10", -0.0268],
  ["RRIRKRPPRLPRPRPRPLQLPRP", "Escherichia coli TOP10", 0.166],
  ["RRIRTRPPRLPRPRPRPDPNPRP", "Escherichia coli TOP10", 0.0586],
  ["RRIRLRPPRLPRPRPRPGAFPRP", "Escherichia coli TOP10", -0.0131],
  ["RRIRARPPRLPRPRPRPWALPRP", "Escherichia coli TOP10", 0.172]
]}

Requested read-out: shrunken log2 fold change. Entry: "RRIRARPPRLPRPRPRPDNRPRP"
0.0425

Query: shrunken log2 fold change; subject: "RRIRVRPPRLPRPRPRPYCAPRP"
-0.229

Suppose we examine the sequence "RRIRCRPPRLPRPRPRPCKGPRP" ; what shrunken log2 fold change value has been reported?
0.035

Recorded shrunken log2 fold change for "RRIRHRPPRLPRPRPRPISTPRP" , please?
-0.578

Look up shrunken log2 fold change: "RRIRYRPPRLPRPRPRPGNLPRP"
0.0185

Looking for the measured shrunken log2 fold change of "RRIRFRPPRLPRPRPRPSIRPRP" , can you help?
-0.288

I have this sequence here, "RRIRGRPPRLPRPRPRPRYIPRP" , and I need its recorded shrunken log2 fold change.
-0.222

====

- Tested on: Escherichia coli TOP10;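 note: peptides expressed intracellularly from a pBAD plasmid library in pooled LB shake-flask culture, induced with 0.3% L-arabinose, DNA abundance read by NGS, three biological replicates, DESeq2 with apeglm shrinkage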
- Procedure summary: shrunken log2 fold change of peptide-encoding DNA abundance (4.5 h post-induction vs induction); higher = less antimicrobial activity (less host growth inhibition)
- Reported conditions: time post-induction: 4.5 h; library: site-saturation at positions 5, 18, 19, 20
The following sequences are shown together with reported shrunken log2 fold change values.
In your answer, state the number alone without any accompanying words.

Worked examples, 3 sequences total:
{"columns": ["Seq string", "Experimental result"],
 "data": [
  ["RRIRFRPPRLPRPRPRPETLPRP", 0.0591],
  ["RRIRRRPPRLPRPRPRPYIEPRP", -0.338],
  ["RRIRRRPPRLPRPRPRPVKSPRP", 0.625]
]}

Look up shrunken log2 fold change: "RRIRDRPPRLPRPRPRPIIRPRP"
-0.0604

Entry under review: "RRIRYRPPRLPRPRPRPQGWPRP" . Reported shrunken log2 fold change?
0.031

What value of shrunken log2 fold change has been reported for the following sequence? "RRIRDRPPRLPRPRPRPMPAPRP"
0.354

What value of shrunken log2 fold change has been recorded for this entry: "RRIRNRPPRLPRPRPRPCTCPRP"
-0.0075

Quick check: shrunken log2 fold change of "RRIRYRPPRLPRPRPRPLICPRP" ?
-0.255
